This collection of values is drawn from patent US20210324050A1.

Exercise: for every item that follows, state its recorded EC50.
- TEST SYSTEM: Glutathione S-transferase (GST)-tagged GII.4 Sydney 2012 P domain dimers
- EXPERIMENT SUMMARY: ELISA

input: Name the reported EC50 value associated with the binder NORO-115 (antibody, V domains shown) VH: QVQLVESGGGLVKPGGSLRLSCTASGITISGYYMSWIRQAPGKGLEWIVYINTSGRTIYYADSVKGRFSVSRDNAKESLYLQMDSLTVDDTGIYYCARDRLPASGSHWFHPWGQGTLVTVSS VL: DIVMTQSPDSLAVSLGGRATINCKSSQSVLYTSDNKNYLAWYQQQPGQPPKLLISWASTRESGVPDRFSGSGSGTDFTLTISNLQAEDVAVYYCQQYYNSPLAFGGGTKVEIK
output: 0.1 µg/mL

input: Name the reported EC50 value associated with the binder NORO-250B (antibody, V domains shown) VH: QVQLVESGGGLVKPGGSLTLSCAASGFTFSDYYMNWIRQAPGKRLEWVSYISGIMSSTNYADSVKGRFTISRDTAKKSVYLQMNSLRAEDTAVYYCARATSQGATSYYFDSWGQGTLVTVSS VL: QSVLTQPPSVSGAPGQRVTISCTGSSSNIGADYDVHWYQQLPGAAPRLLIYADINRPSGVPDRFSGSKSGTSASLAITGLQAEDEADYYCQSYDRSVSGSAVFGGGTKVTVL
output: 0.1 µg/mL

input: Name the reported EC50 value associated with the binder NORO-123 (antibody, V domains shown) VH: QVQLVESGGGVVQPGRSLRLSCSTSGFTFSQYPMHWVRQAPGKGLEWVALISYDGMNKYYADSVRGRFTISRDNSENTQYLQMNSLRGDDTAVYYCARVTGDCTGNRCSYWAYYYYGLDVWGQGTLVTVSS VL: QSALTQPPSASGSPGQSVTISCTGTSSDVGGYKYVSWYQQHPGKAPKLMIYEVTRRPSGVPDRFSGSKSGNTAFLTVSGLQAEDEADYYCGSYAGSTTSGYVFGTGTKVIVL
output: 6.1 µg/mL

input: Name the reported EC50 value associated with the binder NORO-263 (antibody, V domains shown) VH: QVQLVESGGGLVKPGGSLRLSCAASGFTLSDYYMSWIRQAPGKGLEWVAYISSSHTSTYYRDSVKGRFTISRDSAKKSLYLQMNSLRVEDTAIYYCARDWVGGRSAYSDHWGQGTLVTVSS VL: SYELTQPPSVSVSPGQTARITCSGDALPRRPAFWYQQKSGQAPVLVMYDDSKRPSGIPERFSGSSSGTVATLTISGAQVEDEADYHCYSTDSSGKERVFGGGTKLTVL
output: 0.9 µg/mL

input: Name the reported EC50 value associated with the binder NORO-315B (antibody, V domains shown) VH: QVQLVESGGGLVKPGGSLRLSCVASGFTFSDYYMTWFRQTPGRGLEWLSYISAIGGYTEYADSVKSRFIISRDNGKKSLYLQMNSLRAEDSGVYYCAREDCHGTSCYSGDWGQGTLVTVSS VL: QSVLTQPPSVSGAPGQRVTISCTGSSSNIGAGYDVHWYQQLPGTAPKLLIYHNTNRPSGVPDRFSGSKSGTSAYLTITGLQAEDEADYYCQSYDRSLSKSRVFSGGTKLTVL
output: 0.3 µg/mL

input: Name the reported EC50 value associated with the binder NORO-303 (antibody, V domains shown) VH: QVQLVESGGGVVQPGRSLRLSCAASGFIFSSYAMHWVRQAPGKGLEWVAVMSYDGNNKYYADSVKGRFTISRDNSKNTLFLQMNSLRPEDTAVYYCARDCRVGWVFTYGMDVWGQGTLVTVSS VL: QSALTQPPSASGSPGQSVTISCTGTSSDVGGYNYVSWYQQHPGKAPKLMMYEISKRPSGVPIRFSGSKSGNTASLTVSGLQAEDEADYYCSSYAGTYNCVVFGGGTKLTVL
output: 6.8 µg/mL
